- TGT: T1, TIGIT (UniProt Q495A1 22-141, limits assumed)
- T1 construct: also called T cell immunoreceptor with Ig and ITIM domains; hTIGIT
- T1 sequence (looked up): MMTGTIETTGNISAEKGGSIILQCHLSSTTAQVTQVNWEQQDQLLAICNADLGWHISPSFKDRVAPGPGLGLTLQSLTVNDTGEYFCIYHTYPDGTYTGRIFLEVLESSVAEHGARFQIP
- RUN_DESCRIPTION: SPR, VHH-V5-His
Labelling: koff reported below 0.009 s⁻¹ becomes rule met; at or above becomes rule not met.

Quick check: does TIGIT-31-20 (VHH-V5-His) (VHH, not shown: V5-His tag) VHH: EVQLVESGGGLVQPGGSLRLSCAASGFTFSGNWMGWFRQAPGKEREFVAGILSDGRELYADSVKGRFTISADNSKNTAYLQMNSLKPEDTAVYYCAADVWYGSTWRNWGQGTLVTVSS have koff under 0.009 s⁻¹?
rule met

Same read-out for TIGIT-31-47 (VHH-V5-His) (VHH, not shown: V5-His tag) VHH: EVQLVESGGGLVQPGGSLRLSCAASGFTFSGNWMGWFRQAPGKEREWVVGISSGGTPHYADSVKGRFTISADNSKNTAYLQMNSLKPEDTAVYYCAADVWYGSTWRNWGQGTLVTVSS ?
rule met

Same read-out for TIGIT-31-01 (VHH-V5-His) (VHH, also called TIGIT-31-1; 31-1; not shown: V5-His tag) VHH: EVQLVESGGGLVQPGGSLRLSCAASGFTFDRSWMGWFRQAPGKEREVVASITSGGSTYYADSVKGRFTISADNSKNTAYLQMNSLKPEDTAVYYCAADVWYGSTWRNWGQGTLVTVSS ?
rule met

Same read-out for TIGIT-31-56 (VHH-V5-His) (VHH, not shown: V5-His tag) VHH: EVQLVESGGGLVQPGGSLRLSCAASGRIFRRNSMGWFRQAPGKEREFVAVITRSGGGEVTTYADSVKGRFTINADNSKNTAYLQMNSLKPEDTAVYYCAMSSVTRGSSDWGQGTLVTVST ?
rule not met

Same read-out for TIGIT-31-26 (VHH-V5-His) (VHH, not shown: V5-His tag) VHH: EVQLVESGGGLVQPGGSLRLSCAASGFTFDRSWMGWFRQAPGKERELVAAITSGGSTYYADSVKGRFTISADNSKNTAYLQMNSLKPEDTAVYYCAADVWYGSTWRNWGQGTLVTVSS ?
rule met

Same read-out for TIGIT-31-34 (VHH-V5-His) (VHH, not shown: V5-His tag) VHH: EVQLVESGGGLVQPGGSLRLSCAASGRSRYGMGWFRQAPGKEREFVSAISWSGISTYYADSVKGRFTISADNSKNTAYLQMNSLKPEDTAVYYCAATQWGSSGWKQARWYDWGQGTLVTVSS ?
rule not met

Same read-out for TIGIT-30-58 (VHH-V5-His) (VHH, not shown: V5-His tag) VHH: EVQLVESGGGLVQAGGSLRLSCAASGFAFGDSWMGWFRQAPGKEREWVSGISSGGGRTYYADSVKGRFTISADNAKNTVYLQMNSLKPEDTAVYYCAADVWYGSTWRNWGQGTQVTVSS ?
rule not met

Same read-out for TIGIT-31-32 (VHH-V5-His) (VHH, not shown: V5-His tag) VHH: EVQLVESGGGLVQPGGSLRLSCAASGFTFSTSWMGWFRQAPGKERELVAAMTSGGGTNYADSVKGRFTISADNSKNTAYLQMNSLKPEDTAVYYCAADVWYGSTWRNWGQGTLVTVSS ?
rule met

Same read-out for TIGIT-31-35 (VHH-V5-His) (VHH, not shown: V5-His tag) VHH: EVQLVESGGGLVQPGGSLRLSCAASGFTFSTSWMGWFRQAPGKERELVASITSGGTTNYADSVKGRFTISADNSKNTAYLQMNSLKPEDTAVYYCAADVWYGSTWRNWGQGTLVTVSS ?
rule not met
